B1: COUP transcription factor 1, residues 83 to 159; numbered along this chain, P10589 (parent)
chain: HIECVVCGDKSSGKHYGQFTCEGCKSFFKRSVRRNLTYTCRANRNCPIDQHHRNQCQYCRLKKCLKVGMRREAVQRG

Variants of: B1
MEASUREMENT PROTOCOL: abundance fitness (aPCA) (normalised: wild type 0, dead -1); higher = more abundant; growth selection in yeast, the domain comes from the species named
CONDITION INFO: Homo sapiens
If the reported abundance fitness equals or exceeds -0.2, assign Fulfilled. If not, assign Not fulfilled.

Does the variant I48H have recorded abundance fitness that is -0.2 or more? Not fulfilled

Consider the record given below.
# bool: abundance fitness of C24T >= -0.2 Not fulfilled

Value source: the Human Domainome abundance scans (Beltran et al. 2025)
